- Test system: K-562 leukemia
- PROTOCOL DETAILS: NCI-60 one-dose screen, 48 h
- TEST CONTEXT: 10 µM unless noted
About 83,000 compounds went through this panel and 20% of them were active in at least one assay; those are over-represented in the sample as a whole. Active and inactive are the calls of the source. Rule for the calls: active = growth percent below 10; inactive = the rest.
Parameter call: string, one of active, inactive

CCN(CC)CCN1C(=O)c2c(c(C)c3c(oc4cc(OC)ccc43)c2C)C1=O ... active
COc1ccc(/C=N\NC(=O)c2ccc3nc(-c4ccc(Cl)cc4)[nH]c3c2)cc1 ... inactive
Cn1nc(-c2ccc(Cl)cc2)nc2c(=O)n(C)c(=O)nc1-2 ... active
CC(=O)OCCOc1cc(Cl)c(Cl)cc1Cl ... inactive
O=C(Nc1cccc(Cn2c(=O)[nH]c3ccc(Oc4ncccn4)cc3c2=O)c1)c1cccc(Cl)c1 ... inactive
COc1ccc(-c2cn(Cc3ccc4c(Br)cc(Br)c(O)c4n3)nn2)cc1 ... inactive

Any idea what this test logged for Cc1nc2cccc(NCc3ccc(C(=O)NO)cc3)c2c(=O)n1-c1ccccc1 ?
inactive

Any idea what this test logged for COc1ccccc1-c1nc2ccc3[nH]ncc3c2c2c1CCCC2 ?
inactive

Any idea what this test logged for O=C1C=CC2(O)OC(c3ccccc3)CC(=O)C2=C1O (stereo not given) ?
inactive

Any idea what this test logged for CN(C)CCCN(CCC1CCCCC1)CCC1CCCCC1 ?
inactive

Any idea what this test logged for O=C1OCC2=C1C(c1cccc(F)c1)c1cc3c(cc1N2CCO)CCC3 (stereo not given) ?
active

Any idea what this test logged for CC(=O)OCC(=O)O[C@@H]1C[C@]2(C(C)C)O[C@@]1(C)[C@@H]1CC[C@@H](C)[C@H]1[C@@H]2OC(=O)/C=C/c1ccccc1 ?
inactive

Any idea what this test logged for COc1ccc(Nc2nccc(Nc3ccc4[nH]ncc4c3)n2)cc1 ?
active

###

- Tested on: HCC-2998 colon
- PROTOCOL DETAILS: NCI-60 one-dose screen, 48 h (100 = growth as untreated, 0 = no growth, -100 = all killed)
- TEST CONTEXT: 10 µM unless noted
The panel holds about 83,000 compounds, 20% with a hit somewhere; the sample as a whole holds those more often. Calls of active or inactive are those of the source. How the source made its calls: active means growth percent below 10; inactive means the rest.
MEASURED PROPERTY: growth

Look over these answered cases.
CCOC(=O)C1=C(C)N(C)C(=O)N(C)C1c1ccccc1 (stereo not given) ... 93.2% (inactive)
CCCCCCCCCCCCCC[n+]1ccc2c(C)c3c(c(C)c2c1)c1cc(O)ccc1n3CC ... -64.6% (active)
CC(C)(C#N)c1cc(C(=O)Nc2cc(Nc3ncccc3-c3ncnc4nc[nH]c34)ccc2F)cc(C(F)(F)F)c1 ... 41.8% (inactive)

Batch of 5 compounds: report growth for each.
1. CN(C)c1ccc(/C=N/NC(=O)CSc2nc3sc4c(c3c(=O)n2-c2ccccc2)CCCCC4)cc1
2. O=C(/C=C/C12c3ccccc3C(c3ccccc31)C1C(=O)NC(=O)C12)c1cccs1 (stereo not given)
3. COc1cc(/C=C/c2cc(/C=C/c3ccc(O)c(OC)c3)n(C(=O)Nc3ccc(C)cc3C)n2)ccc1O
4. O=C(CNc1ncco1)Nc1ccc(S(=O)(=O)c2ccc(NC(=O)CNc3ncco3)cc2)cc1
5. Cc1ccc(S(=O)(=O)N(CCC(=O)O)c2ccccc2)cc1

39.4% (inactive)
99.4% (inactive)
4.28% (active)
76.4% (inactive)
112% (inactive)

###

- Test system: K-562 leukemia
- PROTOCOL DETAILS: NCI-60 one-dose screen, 48 h (100 = growth as untreated, 0 = no growth, -100 = all killed)
- TEST CONTEXT: 10 µM unless noted
Compounds without any hit were thinned out: in the full panel of roughly 83,000, 20% have a hit.
Could you please mark satisfied for values of growth below 30% and not satisfied for values at or above it?

Known results for molecules:
CC(CN)[C@@H]1CC[C@]2(CO)CC[C@]3(C)[C@H](CC[C@@H]4[C@@]5(C)CCC(NCCO)C(C)(C)[C@@H]5CC[C@]43C)[C@@H]12 (stereo partly drawn) ... satisfied
CC1=C([Se]CC(OC(=O)[C@@H](CO)NC(=O)OC(C)(C)C)C(=O)NCCCCCC(=O)OCc2ccccc2)C(=O)c2ccccc2C1=O (stereo partly drawn) ... satisfied
Cc1cc(N2CCOCC2)nc(N(CCCNc2ccnc3cc(Cl)ccc23)Cc2ccc3c(c2)OCO3)n1 ... satisfied

Dear reviewer, please state whether COc1ccc(C(=O)/C=C/Nc2cc(-c3ccccc3)nn2-c2ccccc2)cc1 has growth strictly beneath 30%.
not satisfied

###

- System: HOP-92 NSCLC
- PROTOCOL DETAILS: NCI-60 one-dose screen, 48 h
- TEST CONTEXT: 10 µM unless noted
Compounds without any hit were thinned out: in the full panel of roughly 83,000, 20% have a hit. The source made the active and inactive calls. How the source made its calls: active means growth percent below 10; inactive means the rest.
Parameter call: string, one of true (1) (active), false (0) (inactive)

CCOC(=O)c1c(C)nc2c(c1N)C(=O)C(=O)N2CCc1ccc(OC)c(OC)c1 ... false (0)
CCN(CC)CCCNc1cc(OC)cc2cccnc12 ... false (0)

Any idea what this test logged for O=C(NS(=O)(=O)c1ccccc1)n1cc(-c2ccncc2)c(-c2cc(O)cc(Cl)c2)n1 ?
false (0)

Any idea what this test logged for CC(Cc1cccc2ccccc12)C(N)=O (stereo not given) ?
false (0)

###

- Tested on: SK-MEL-28 melanoma
- PROTOCOL DETAILS: NCI-60 one-dose screen, 48 h (100 = growth as untreated, 0 = no growth, -100 = all killed)
- TEST CONTEXT: 10 µM unless noted
- Description: Growth inhibition of the SK-MEL-28 human tumor cell line is measured as a screen for anti-cancer activity. Cells are grown in 96 well plates and exposed to the test compound for 48 hours. Compounds are tested at a single concentration, which is 10^-5 M for most compounds. The reported endpoint is percent growth (GI% or GIPRCNT), where numbers from 0 - 100% represent growth inhibition, and numbers from -100% - 0 represent cell death. For example, a value of 40 represents 60% growth inhibition. […]
The panel holds about 83,000 compounds, 20% with a hit somewhere; the sample as a whole holds those more often.
Answer each item with its documented growth.
Give bare numbers, in %.

Look over these answered cases.
COc1ccc(CNc2c3ccccc3nc3ccccc23)cc1OC ... 35.2
CNC(=O)c1cc(Oc2ccc3nc(NC(=O)Nc4ccc(F)cc4F)sc3c2)ccn1 ... 52.1
CCCN1C2CCC1/C(=C\c1ccc(OC)cc1)C(=O)/C2=C/c1ccc(OC)cc1 ... 82.7
COc1ccc(/C=N/NC(=O)Cn2nnc3ccccc32)cc1 ... 102
[2H]C([2H])([2H])Oc1c(F)cccc1/C=C/C(=O)/C=C(O)/C=C/c1cccc(F)c1OC([2H])([2H])[2H] ... 98.1
C=C(C)[C@@H]1CC[C@]2(COC(=O)c3cccnc3)CC[C@]3(C)[C@H](CC[C@@H]4[C@@]5(C)CCCN(C(=O)c6cccnc6)C(C)(C)[C@@H]5CC[C@]43C)[C@@H]12 ... 51.3
CC(=O)Cc1nsc(NC(=O)c2cc(-c3cc(Cl)ccc3Cl)oc2C)n1 ... 108
O=C(N/N=C/c1ccccc1Cl)c1ccccc1Nc1ccnc(C(F)(F)F)c1 ... 25.7

Here is the next item to consider.
Requested read-out: growth. Entry: COc1ccc(CNc2ccc3nc(CCC4CCCCC4)[nH]c3c2)cc1
76.4

###

- Test system: SW-620 colon
- PROTOCOL DETAILS: NCI-60 one-dose screen, 48 h
- TEST CONTEXT: 10 µM unless noted
About 83,000 compounds went through this panel and 20% of them were active in at least one assay; those are over-represented in the sample as a whole. Active and inactive are the calls of the source. The calls were made as follows: active = growth percent below 10; inactive = the rest.
Parameter call: string, one of YES (active), NO (inactive)

COc1ccc(Nc2nc(Nc3cc(C)[nH]n3)c3cc(OC)c(OC)cc3n2)cc1 ... YES
O=C1c2ccccc2C(=O)c2cc(Cn3c[n+](Cc4ccc5ccccc5c4)c4ccccc43)ccc21 ... NO
FC(F)(F)c1cc(N2CCCCC2)nc(NCCCNc2ccnc3cc(Cl)ccc23)n1 ... NO
CN(C)CCOc1ccc(/C(=C(/CCCCCCCCCC[P+](c2ccccc2)(c2ccccc2)c2ccccc2)c2ccccc2)c2ccccc2)cc1 ... YES
O=C(O)COc1ccc(F)cc1 ... NO
COc1ccc(C(c2cc(OC)c(OC)c(OC)c2)n2cncn2)cc1O (centres undefined) ... NO
CC1(C)C2=C(C(=O)N1Cc1ccccc1)C(c1ccco1)N(C(=O)C1CCC1)CCN2 (centres undefined) ... NO
CCCCCCCC/C=C\CCCCCCCCOc1ccc(CC(=O)NCC[N+]2(C)CCCC2)cc1 ... NO

Any idea what this test logged for COc1ccc(CNc2ccc3nc(CCC4CCCCC4)[nH]c3c2)cc1 ?
NO

Any idea what this test logged for COc1cccc(NC(=O)c2sc3nc(C)c(C(=O)c4ccccc4)cc3c2N)c1 ?
NO

Any idea what this test logged for COc1ccc(/C=C\c2cc(OC)c(OC)c(OC)c2)cc1OCC(=O)Nc1nc2ccccc2s1 ?
NO

Any idea what this test logged for Cc1ccc(NC(=O)c2ccc(Nc3ncnc4c3cnn4-c3cccc(F)c3)cc2)cc1 ?
NO

Any idea what this test logged for Nc1nc(N)c2c(n1)NC(c1ccc3c(c1)OCO3)CC(c1cccc(Nc3ccncc3)c1)=N2 (centres undefined) ?
NO

Any idea what this test logged for CC1(C)CC[C@]2(CO)CC[C@]3(C)[C@H](CC[C@@H]4[C@@]5(C)CC[C@H](O)C(C)(C)[C@@H]5CC[C@]43C)[C@H]2[C@H]1O ?
NO

Any idea what this test logged for CC1=C2[C@@H](CC1)[C@]1(C)O[C@@](C(C)C)(C[C@H]1OC(=O)CO)[C@H]2OC(=O)CCCc1ccccc1 ?
NO

Any idea what this test logged for CN1CCN(c2ccc(Nc3ncc4[nH]c(=O)n(Cc5ccccc5N)c4n3)cc2)CC1 ?
NO

Any idea what this test logged for C(=N\Nc1nnc2n1N=C(c1ccccc1)CS2)/c1ccc(OCc2ccccc2)cc1 ?
NO

Any idea what this test logged for O=C(N/N=C/c1ccccc1Cl)c1ccccc1Nc1ccnc(C(F)(F)F)c1 ?
NO

Any idea what this test logged for COc1ccc(-c2nc3cc(C(=O)NC4CCCCC4)ccc3n2C2CCCCC2)cc1 ?
NO
